- measurement target: ClbR (Escherichia coli Nissle 1917)
- Sequence: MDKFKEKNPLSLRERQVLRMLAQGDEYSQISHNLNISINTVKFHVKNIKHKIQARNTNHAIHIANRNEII
- test details: EMSA
- condition details: pH and temperature not stated
measured property: binding

stdin: Tell us which binding value is on record for GAGATTTTCCATGTAATAAGATGGACACGCGTAAGCAGTTACCGCTAACACCAAGTCAACAGGGGTTTTTATTCCATTCCTTAAAGGATAAGAAAAGGAGTAACTACCATGAGCA (double strand) [probe 8 (clbB upstream, 115 bp)]
stdout: no binding

stdin: Report measured binding; entry is TGCTCATGGTAGTTACTCCTTTTCTTATCCTTTAAGGAATGGAATAAAAACCCCTGTTGACTTGGTGTTAGCGGTAACTGCTTACGCGTGTCCATCTTATTACATGGAAAATCTCCAGAGGTATTATCCATAACCATCACCTTATTATCGGATTTATAGATTATTTAACAT (double strand) [probe 7 (clbB upstream, 171 bp)]
stdout: no binding

stdin: Please give measured binding of the following entry: CCAGTCACGACGTTGTAATACGACGGCCAGAGAATCCGTAATCATAGTCATAGCTGTATCCTGTGTGAAATTGTTATCCGCTCATAATTTCACACAACATACGAGCCGGACACATAGAGTGTAAAGACTGGGGTGCCTAATGAGTGAGCTGACTCACATTAATTGTGTTGCGCTCACTGCCCGCTTTCCAGTCGGGAAACTTGTCGTGCCAGCTGCATTAATGAATCGG (double strand) [lacZ promoter probe (229 bp)]
stdout: no binding
